Where do these numbers come from? They come from patent US4820834A.

molecular target: CCK receptor (brain, cerebral cortex) (Cavia porcellus); construct: Cerebral cortex was dissected and used as a receptor source; from tissue; host or cells: guinea pig cerebral cortex membranes (male Hartley); assay: biochemical; assay type: binding, Male Hartley guinea pigs; details: IC50 ^125 I-CCK Brain, guinea pig cerebral cortex, ^125 I-CCK-33, 25° C., 2 hours
Sequence (H0VZC5 1-426): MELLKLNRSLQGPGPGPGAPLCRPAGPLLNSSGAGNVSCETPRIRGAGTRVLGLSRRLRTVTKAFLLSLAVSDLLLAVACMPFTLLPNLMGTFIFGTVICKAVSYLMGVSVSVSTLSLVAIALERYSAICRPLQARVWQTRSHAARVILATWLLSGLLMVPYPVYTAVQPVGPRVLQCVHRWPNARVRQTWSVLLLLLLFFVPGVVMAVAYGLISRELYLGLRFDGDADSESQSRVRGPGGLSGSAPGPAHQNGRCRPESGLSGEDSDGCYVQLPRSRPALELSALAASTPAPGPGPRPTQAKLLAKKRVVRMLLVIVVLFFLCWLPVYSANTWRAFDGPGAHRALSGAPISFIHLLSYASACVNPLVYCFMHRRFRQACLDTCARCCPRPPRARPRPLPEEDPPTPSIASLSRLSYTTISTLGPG
Entries and their IC50
Lab book: enter the figure in µM, no units written.

- COMPOUND: "O=C(NC1N=C(c2ccccc2F)c2ccccc2NC1=O)c1cc2ccccc2[nH]1 (racemic) [Example 105]"
  SYSTEM UNDER TEST: "CCK receptor (brain, cerebral cortex) (Cavia porcellus)"
  U: "µM"
  IC50: 3

compound CN1C(=O)[C@H](NC(=O)Nc2cccc(Br)c2)N=C(c2ccccc2)c2ccccc21 [Example 282] , IC50 observed: 0.0038
